Target: B2 receptor
Sequence (P30411 whole entry): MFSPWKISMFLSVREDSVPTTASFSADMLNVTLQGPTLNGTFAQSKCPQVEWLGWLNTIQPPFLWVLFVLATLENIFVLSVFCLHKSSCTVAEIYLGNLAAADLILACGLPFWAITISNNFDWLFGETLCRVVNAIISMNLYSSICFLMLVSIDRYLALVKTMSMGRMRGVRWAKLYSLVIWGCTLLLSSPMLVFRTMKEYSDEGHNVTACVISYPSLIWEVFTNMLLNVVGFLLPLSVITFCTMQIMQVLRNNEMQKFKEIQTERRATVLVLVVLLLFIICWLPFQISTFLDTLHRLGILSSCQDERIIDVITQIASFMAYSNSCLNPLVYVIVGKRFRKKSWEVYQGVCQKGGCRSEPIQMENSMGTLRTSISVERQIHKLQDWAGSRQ
Experiment: cell-based or functional assay
Where no end group is shown, it is not given here. [ ]: non-standard residue; d: D form. 2Thi = N[C@@H](Cc1cccs1)C(=O)O
measurement_kind: Relative affinity activity (B2-NFAT-CHO-K1 luciferase reporter gene assay, from EC50) (%)

Reference set, count: 2
[2Thi]SPFR [Lys-BKm09]; 0
RPPG[2Thi]SPFR [Lys-BKm02]; 100

P. CRRRPPG[2Thi]SPFR [Lys-BKm16]
Q. SPFR [Lys-BKm10]
Which is greater in Relative affinity activity (B2-NFAT-CHO-K1 luciferase reporter gene assay, from EC50), the first item P or the second item Q ? Select an item and report its label.
P

Hey, just so you know, these numbers are from patent US20250295792A1.
